System: Plasmodium berghei
test: Screen against P. berghei liver stage (PbLuc), transformed with Luciferase, at 10uM
Type: functional, HepG2
conditionInfo: tested at 10 uM
The whole screen tested about 69,000 compounds, of which about 8,600 (12%) showed an effect of 50% or more. This excerpt belongs to a sample that is enriched for strong results.

>  <compound>
Cc1ccccc1OCC(=O)N1CCCC(CNS(C)(=O)=O)C1 (stereo unspecified)

>  <INHIBITION (%)>
-3.8

$$$$
>  <compound>
CCN(CC)C(=O)c1nnsc1-c1ccc(C)cc1

>  <INHIBITION (%)>
54.8

$$$$
>  <compound>
O=C(NCCOc1ccc2c(c1)OCO2)C1CC(=O)N(C2CC2)C1 (stereo unspecified)

>  <INHIBITION (%)>
31.9

$$$$
>  <compound>
CCCn1nc2c(cc1=O)CN(CC(=O)Nc1nnc(C)s1)CC2

>  <INHIBITION (%)>
26.3

$$$$
>  <compound>
CC(=O)N1CCN(Cc2ccccn2)CC2(CC(=O)N(C)C2)C1 (stereo unspecified)

>  <INHIBITION (%)>
14.1

$$$$
>  <compound>
O=C(NCC1(O)COCCN(Cc2cccc(O)c2)C1)c1cscn1 (stereo unspecified)

>  <INHIBITION (%)>
-19.7

$$$$

---

System: Plasmodium berghei
test: Screen against P. berghei liver stage (PbLuc), transformed with Luciferase, at 10uM
Type: functional, HepG2
conditionInfo: tested at 10 uM
Screen size: about 69,000 compounds; about 8,600 (12%) showed an effect of 50% or more. The sample holds strong results, similar compounds and a random draw of the others, so the mix is not that of the screen.
propertyMeasured: INHIBITION (%)

>  <compound>
Cc1nc(N2CCC(CN3CCCC3)CC2)c2cnn(C)c2n1

>  <propertyMeasured>
INHIBITION

>  <obsValue>
57.2

$$$$
>  <compound>
c1cncc(CCc2nc(C3CC3)nn2-c2ccc3c(c2)OCCO3)c1

>  <propertyMeasured>
INHIBITION

>  <obsValue>
50.1

$$$$
>  <compound>
CCCS(=O)(=O)N1C[C@@H](Oc2ccccn2)[C@H]2OCCC[C@H]21

>  <propertyMeasured>
INHIBITION

>  <obsValue>
-21.1

$$$$
>  <compound>
Cc1cc(CNc2cc(Cl)ccc2C)no1

>  <propertyMeasured>
INHIBITION

>  <obsValue>
-4.4

$$$$
>  <compound>
CCCc1nc(N2CCCN3CCC[C@H]3C2)c2cnn(C)c2n1

>  <propertyMeasured>
INHIBITION

>  <obsValue>
27.7

$$$$
>  <compound>
O=C(NC1CCC1)c1cccc(S(=O)(=O)NCc2nc(C3CC3)no2)c1

>  <propertyMeasured>
INHIBITION

>  <obsValue>
-9.2

$$$$
>  <compound>
c1ccc(Cc2nc(C3CC3)nn2-c2ccc3c(c2)OCCO3)nc1

>  <propertyMeasured>
INHIBITION

>  <obsValue>
-52.4

$$$$
>  <compound>
Cc1nc(N2CCN(C(=O)CC3CCCC3)CC2)c2cnn(C)c2n1

>  <propertyMeasured>
INHIBITION

>  <obsValue>
0.0944

$$$$
>  <compound>
CN(CC1COc2ccccc2O1)C(=O)C1=NN(C)C(=O)CC1 (stereo unspecified)

>  <propertyMeasured>
INHIBITION

>  <obsValue>
25.7

$$$$
>  <compound>
CCCc1nc(N2CCCC(CCOC)C2)c2cnn(C)c2n1 (stereo unspecified)

>  <propertyMeasured>
INHIBITION

>  <obsValue>
40.6

$$$$
>  <compound>
O=C(CN1CC(c2nc(C3CC3)no2)C1)NCc1ccc(F)cc1

>  <propertyMeasured>
INHIBITION

>  <obsValue>
-50.7

$$$$

---

Below: a set of entries, each annotated with reported INHIBITION.
Test system: Plasmodium berghei
test: Screen against P. berghei liver stage (PbLuc), transformed with Luciferase, at 10uM
Format: functional, HepG2
conditionInfo: tested at 10 uM
Among all 69,000 compounds or so, about 8,600 (12%) showed an effect of 50% or more. Shown is part of a subset that was picked to be rich in strong results.

>  <compound>
Cc1ncc2c(n1)CN(C(C(N)=O)c1ccc(F)cc1)CC2 (stereo unspecified)

>  <unitSpec>
%

>  <INHIBITION>
58.5

$$$$
>  <compound>
Cc1ncc2c(n1)CCN(C(C(N)=O)c1ccccc1)C2 (stereo unspecified)

>  <unitSpec>
%

>  <INHIBITION>
-4.4

$$$$
>  <compound>
CN(C)C[C@H]1C[C@@H]2CN(C(=O)c3ccco3)C[C@@H]2O1

>  <unitSpec>
%

>  <INHIBITION>
42.3

$$$$
>  <compound>
C[C@H]1C[C@@H]2CCN(C(=O)c3ccccn3)C[C@H]2O1

>  <unitSpec>
%

>  <INHIBITION>
-0.813

$$$$
>  <compound>
Cc1ccc(N2CCC(C(O)Cc3ccccc3)CC2)nn1 (stereo unspecified)

>  <unitSpec>
%

>  <INHIBITION>
-2.97

$$$$
>  <compound>
CSCc1ccc(N2CCN(c3ccc(Cl)cn3)CC2)nc1

>  <unitSpec>
%

>  <INHIBITION>
38.3

$$$$

---

Test system: Plasmodium berghei
test: Screen against P. berghei liver stage (PbLuc), transformed with Luciferase, at 10uM
Assay type: functional, HepG2
conditionInfo: tested at 10 uM
The campaign covered roughly 69,000 compounds. About 8,600 (12%) showed an effect of 50% or more. Many of the other results were omitted from the sample, so strong results are more common in it than they were.
propertyMeasured: INHIBITION (%)

>  <compound>
COc1ccc(CN2CCc3c(nc(-c4ccccn4)[nH]c3=O)C2)cc1

>  <obsValue>
-11.7

$$$$
>  <compound>
CCc1onc(C)c1C(=O)N1CCN(c2ncc3c(n2)CCOC3)CC1

>  <obsValue>
17.05

$$$$
>  <compound>
CNS(=O)(=O)c1ccc(CNC(=O)C2CCCO2)cc1 (stereo unspecified)

>  <obsValue>
54.3

$$$$
>  <compound>
Cc1ccsc1C(=O)N1CCN(Cc2cscn2)CC1

>  <obsValue>
-6.14

$$$$
>  <compound>
CC1CN(C(=O)NCc2cnn(-c3ccc(F)cc3F)c2)CCO1 (stereo unspecified)

>  <obsValue>
-2.55

$$$$
>  <compound>
CNS(=O)(=O)c1ccc(CNC(=O)N(CC(C)C)C(C)C)cc1

>  <obsValue>
31.2

$$$$

---

System: Plasmodium berghei
test: Screen against P. berghei liver stage (PbLuc), transformed with Luciferase, at 10uM
Type: functional, HepG2
conditionInfo: tested at 10 uM
About 8,600 (12%) of roughly 69,000 compounds showed an effect of 50% or more. This is one part of a sample in which strong results are shown more often than they occur.
propertyMeasured: INHIBITION (%)

>  <compound>
Cc1ccc(CNC(=O)c2cc(NC(=O)C3CC3)n(C)n2)o1

>  <unitSpec>
%

>  <obsValue>
-8.95

$$$$
>  <compound>
Cn1nc(C(=O)NC2CC2)cc1NC(=O)C1CC1

>  <unitSpec>
%

>  <obsValue>
75.3

$$$$
>  <compound>
Cn1nc(C(=O)NC2CC(C)(C)NC(C)(C)C2)cc1NC(=O)C1CC1

>  <unitSpec>
%

>  <obsValue>
21.8

$$$$
>  <compound>
Nc1ccc(CC2CCCN(Cc3c[nH]cn3)C2)nn1 (stereo unspecified)

>  <unitSpec>
%

>  <obsValue>
-4.87

$$$$
>  <compound>
Cc1cc(C)n(CC2CN(CC(=O)Nc3cccnc3)CCO2)n1 (stereo unspecified)

>  <unitSpec>
%

>  <obsValue>
-14.3

$$$$
>  <compound>
CC(C)c1ccc(OCCNC(=O)CN2CCN(C)CC2C)cc1 (stereo unspecified)

>  <unitSpec>
%

>  <obsValue>
32.7

$$$$

---

Tested on: Plasmodium berghei
test: Screen against P. berghei liver stage (PbLuc), transformed with Luciferase, at 10uM
Type: functional, HepG2
conditionInfo: tested at 10 uM
In all, about 69,000 compounds went through this assay and about 8,600 (12%) showed an effect of 50% or more. Many of the other results were omitted from the sample, so strong results are more common in it than they were.
Below: a set of entries, each annotated with reported INHIBITION.

>  <molecule>
Cc1ccccc1-c1noc(CN2CCc3nn(C)c(=O)cc3C2)n1

>  <INHIBITION (%)>
7.08

$$$$
>  <molecule>
Cc1n[nH]c(C)c1NC(=O)CN1CCN(c2nccs2)C(C)C1 (stereo unspecified)

>  <INHIBITION (%)>
14.4

$$$$
>  <molecule>
Cc1cnc(C(=O)N2CCN(c3ncc4c(n3)CCOC4)CC2)cn1

>  <INHIBITION (%)>
27.4

$$$$
>  <molecule>
COCc1nn(C(C)C)c2c1CCN(Cc1ccccn1)C2

>  <INHIBITION (%)>
-18.4

$$$$
>  <molecule>
CN(C)Cc1cnc(CC2CCN(CCc3ccccc3)CC2)cn1

>  <INHIBITION (%)>
9.05

$$$$
>  <molecule>
O=c1[nH]c2c(-c3ccccn3)nsc2c(=O)n1CC1CC1

>  <INHIBITION (%)>
7.3

$$$$
